TARGET_OR_TEST_SYSTEM: recombinant full length human PDE1B (r-hPDE1B) (Homo sapiens (Human))
TEST_PROTOCOL: IMAP phosphodiesterase assay, r-hPDE1B
EXPERIMENTAL_PARAMETERS: IMAP fluorescence polarization, FL-GMP substrate
READOUT_LABEL: IC50 (µM)
Give just the numeric value; µM need not be written.

>>> print(df.to_string())
                               entry_smiles  readout_label  result_value
0  CCSc1c2c(nn1Cc1ccc(-c3ccc(F)cn3)cc1)N1CC(C)(C)N=C1N(C)C2=O           IC50            11
1  CCSc1c2c(nn1Cc1ccc(-c3cccc(F)n3)cc1)N1C(=N[C@@H]3CCC[C@@H]31)N(C)C2=O           IC50            27

Could you now consider this next compound?
Which value of IC50 has been reported for CCSc1c2c(nn1Cc1ccc(-c3cccc(F)n3)cc1)N1CC(C)(C)N=C1N(C)C2=O in the records?
4

---

Listed below: IC50 values for each entry.
TARGET_OR_TEST_SYSTEM: recombinant full length human PDE1A (r-hPDE1A) (Homo sapiens (Human))
TEST_PROTOCOL: IMAP phosphodiesterase assay, r-hPDE1A
EXPERIMENTAL_PARAMETERS: IMAP fluorescence polarization, FL-GMP substrate
Number in nM, nothing else.

Illustrative cases are given below, each with its answer.
In [3]: df
Out[3]:
                               entry_smiles  unit_symbol  result_value
0  CCSc1c2c(nn1Cc1ccc(-c3cccc(F)n3)cc1)N1CC(C)(C)N=C1N(C)C2=O           nM             1
1  CC(C)Sc1c2c(nn1Cc1ccc(-c3cccc(F)n3)cc1)N1C(=N[C@@H]3CCC[C@@H]31)N(C)C2=O           nM             6
2  CCSc1c2c(nn1Cc1ccc(-c3cccc(F)n3)cc1)N1C(=N[C@@H]3CCC[C@@H]31)N(C)C2=O           nM           1.5

Consider the additional compound presented here.
Please look up its IC50: CCSc1c2c(nn1Cc1ccc(-c3ccc(F)cn3)cc1)N1CC(C)(C)N=C1N(C)C2=O
2.7
